Data origin: PubChem BioAssay AID2060604

- System: 379773-124-R-J2-PDC complex spheroids, viability % test/control
- assay-text: Anticancer human tumor 379773-124-R-J2-PDC patient-derived endometrial carcinoma cell line growth inhibition [CLK]
- condition-notes: second compound 0.316 µM; first compound 0.316 µM; hits give low values
In this section, each of the compounds is paired with its reported viability, T/C.
Numeric only. Scale: %

Take a look at these entries with their results.
compound	endpoint-name	numeric-result
O=C(c1cc(Cc2n[nH]c(=O)c3ccccc23)ccc1F)N1CCN(C(=O)C2CC2)CC1 + CN1CCN(c2cc(C(=O)Nc3cc4cc(-c5cnn(C)c5)ccc4cn3)ccn2)CC1	viability, T/C	15.1
C#Cc1c(F)ccc2cc(O)cc(-c3ncc4c(N5CC6CCC(C5)N6)nc(OCC56CCCN5CC(F)C6)nc4c3F)c12 (stereo not given) + CN1CCN(c2cc(C(=O)Nc3cc4cc(-c5cnn(C)c5)ccc4cn3)ccn2)CC1	viability, T/C	35.1
COC1C=CCC(C)C(C)S(=O)(=O)NC(=O)c2ccc3c(c2)N(CC2CCC21)CC1(CCCc2cc(Cl)ccc21)CO3 (stereo not given) + CNC(=O)c1ccc(Nc2nc(OC3CCCC3)c3c(-c4ccc5nc(C)oc5c4)c[nH]c3n2)c(OC)c1	viability, T/C	30.1
CC(Nc1ccc2c(c1)OCCn1cc(N3C(=O)OCC3C(F)F)nc1-2)C(N)=O (stereo not given) + CNC(=O)c1ccc(Nc2nc(OC3CCCC3)c3c(-c4ccc5nc(C)oc5c4)c[nH]c3n2)c(OC)c1	viability, T/C	29.1

# value of viability, T/C, 379773-124-R-J2-PDC complex spheroids, viability % test/control, item COc1c(OCCCN2CCOCC2)ccc2c3n(c(=NC(=O)c4cnc(N)nc4)nc12)CCN3 + CNC(=O)c1ccc(Nc2nc(OC3CCCC3)c3c(-c4ccc5nc(C)oc5c4)c[nH]c3n2)c(OC)c1 = 3.08

====

- Tested on: 379773-124-R-J2-PDC complex spheroids, viability % test/control
- assay-text: Anticancer human tumor 379773-124-R-J2-PDC cell line growth inhibition [CLK]; active = viability on the fitted dose curve at most 10% of control; inactive = the rest;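 further: compound exposure lasted seven days before the viability readout; 100% = DMSO vehicle control wells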
- condition-notes: second compound 0.316 µM; first compound 3.16 µM
The reply should be one of these categories: TRUE (active), FALSE (inactive)

compound	label
COc1cccc2c1C(=O)c1c(O)c3c(c(O)c1C2=O)CC(O)(C(=O)CO)CC3OC1CC(N)C(O)C(C)O1 (stereo unspecified) + CNC(=O)c1ccc(Nc2nc(OC3CCCC3)c3c(-c4ccc5nc(C)oc5c4)c[nH]c3n2)c(OC)c1	TRUE
COC1C=CCC(C)C(C)S(=O)(=O)NC(=O)c2ccc3c(c2)N(CC2CCC21)CC1(CCCc2cc(Cl)ccc21)CO3 (stereo unspecified) + CNC(=O)c1ccc(Nc2nc(OC3CCCC3)c3c(-c4ccc5nc(C)oc5c4)c[nH]c3n2)c(OC)c1	FALSE
COc1cccc2c1C(=O)c1c(O)c3c(c(O)c1C2=O)CC(O)(C(=O)CO)CC3OC1CC(N)C(O)C(C)O1 (stereo unspecified) + CN1CCN(c2cc(C(=O)Nc3cc4cc(-c5cnn(C)c5)ccc4cn3)ccn2)CC1	TRUE
O=C(c1cc(Cc2n[nH]c(=O)c3ccccc23)ccc1F)N1CCN(C(=O)C2CC2)CC1 + CN1CCN(c2cc(C(=O)Nc3cc4cc(-c5cnn(C)c5)ccc4cn3)ccn2)CC1	FALSE
CC1COCCN1c1cc(C2(S(C)(=N)=O)CC2)nc(-c2ccnc3[nH]ccc23)n1 (stereo unspecified) + CNC(=O)c1ccc(Nc2nc(OC3CCCC3)c3c(-c4ccc5nc(C)oc5c4)c[nH]c3n2)c(OC)c1	FALSE

Turning now to a further record.
Q. Test call, this compound: COC1C=CCC(C)C(C)S(=O)(=O)NC(=O)c2ccc3c(c2)N(CC2CCC21)CC1(CCCc2cc(Cl)ccc21)CO3 (stereo unspecified) + CN1CCN(c2cc(C(=O)Nc3cc4cc(-c5cnn(C)c5)ccc4cn3)ccn2)CC1
A. FALSE

====

- System: 379773-124-R-J2-PDC complex spheroids, viability % test/control
- assay-text: Anticancer human tumor 379773-124-R-J2-PDC cell line growth inhibition [CLK]; active = viability on the fitted dose curve at most 10% of control; inactive = the rest;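 further: compound exposure lasted seven days before the viability readout; 100% = DMSO vehicle control wells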
- condition-notes: second compound 0.316 µM; first compound 0.003 µM
The reply should be one of these categories: Y (active), N (inactive)

Some entries whose results are on file:
compound	label
CC(C)CC(NC(=O)C(Cc1ccccc1)NC(=O)c1cnccn1)B(O)O (centres undefined) + CN1CCN(c2cc(C(=O)Nc3cc4cc(-c5cnn(C)c5)ccc4cn3)ccn2)CC1	Y
C=CC(=O)Nc1cc(Nc2nccc(-c3cn(C)c4ccccc34)n2)c(OC)cc1N(C)CCN(C)C + CN1CCN(c2cc(C(=O)Nc3cc4cc(-c5cnn(C)c5)ccc4cn3)ccn2)CC1	N
CC(C)CC(NC(=O)C(Cc1ccccc1)NC(=O)c1cnccn1)B(O)O (centres undefined) + CNC(=O)c1ccc(Nc2nc(OC3CCCC3)c3c(-c4ccc5nc(C)oc5c4)c[nH]c3n2)c(OC)c1	Y

Turning now to a further record.
Q. Test call, this compound: C=CC(=O)Nc1cc(Nc2nccc(-c3cn(C)c4ccccc34)n2)c(OC)cc1N(C)CCN(C)C + CNC(=O)c1ccc(Nc2nc(OC3CCCC3)c3c(-c4ccc5nc(C)oc5c4)c[nH]c3n2)c(OC)c1
A. N

====

- Tested on: 379773-124-R-J2-PDC complex spheroids, viability % test/control
- assay-text: Anticancer human tumor 379773-124-R-J2-PDC cell line growth inhibition [CLK];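 further: compound exposure lasted seven days before the viability readout; 100% = DMSO vehicle control wells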
- condition-notes: second compound 3.16 µM; first compound 0.01 µM; hits give low values
In this section, each of the compounds is paired with its reported viability, T/C.
Numeric only. Scale: %

compound	target-or-system	viability, T/C, %
CCN1CCN(Cc2ccc(Nc3ncc(F)c(-c4cc(F)c5nc(C)n(C(C)C)c5c4)n3)nc2)CC1 + CN1CCN(c2cc(C(=O)Nc3cc4cc(-c5cnn(C)c5)ccc4cn3)ccn2)CC1	379773-124-R-J2-PDC complex spheroids, viability % test/control	0.15
CCc1c2c(nc3ccc(O)cc13)-c1cc3c(c(=O)n1C2)COC(=O)[C@]3(O)CC + CNC(=O)c1ccc(Nc2nc(OC3CCCC3)c3c(-c4ccc5nc(C)oc5c4)c[nH]c3n2)c(OC)c1	379773-124-R-J2-PDC complex spheroids, viability % test/control	4.96
COc1c(OCCCN2CCOCC2)ccc2c3n(c(=NC(=O)c4cnc(N)nc4)nc12)CCN3 + CN1CCN(c2cc(C(=O)Nc3cc4cc(-c5cnn(C)c5)ccc4cn3)ccn2)CC1	379773-124-R-J2-PDC complex spheroids, viability % test/control	0.45
Cn1ncnc1[C@H]1c2n[nH]c(=O)c3cc(F)cc(c23)N[C@@H]1c1ccc(F)cc1 + CN1CCN(c2cc(C(=O)Nc3cc4cc(-c5cnn(C)c5)ccc4cn3)ccn2)CC1	379773-124-R-J2-PDC complex spheroids, viability % test/control	0.07
Cn1ncnc1[C@H]1c2n[nH]c(=O)c3cc(F)cc(c23)N[C@@H]1c1ccc(F)cc1 + CNC(=O)c1ccc(Nc2nc(OC3CCCC3)c3c(-c4ccc5nc(C)oc5c4)c[nH]c3n2)c(OC)c1	379773-124-R-J2-PDC complex spheroids, viability % test/control	25.2

# value of viability, T/C, 379773-124-R-J2-PDC complex spheroids, viability % test/control, item COc1c(OCCCN2CCOCC2)ccc2c3n(c(=NC(=O)c4cnc(N)nc4)nc12)CCN3 + CNC(=O)c1ccc(Nc2nc(OC3CCCC3)c3c(-c4ccc5nc(C)oc5c4)c[nH]c3n2)c(OC)c1 = 24.1

# value of viability, T/C, 379773-124-R-J2-PDC complex spheroids, viability % test/control, item CCc1c2c(nc3ccc(O)cc13)-c1cc3c(c(=O)n1C2)COC(=O)[C@]3(O)CC + CN1CCN(c2cc(C(=O)Nc3cc4cc(-c5cnn(C)c5)ccc4cn3)ccn2)CC1 = 0.08

# value of viability, T/C, 379773-124-R-J2-PDC complex spheroids, viability % test/control, item CCN1CCN(Cc2ccc(Nc3ncc(F)c(-c4cc(F)c5nc(C)n(C(C)C)c5c4)n3)nc2)CC1 + CNC(=O)c1ccc(Nc2nc(OC3CCCC3)c3c(-c4ccc5nc(C)oc5c4)c[nH]c3n2)c(OC)c1 = 31.4

====

- Tested on: 379773-124-R-J2-PDC complex spheroids, viability % test/control
- assay-text: Anticancer human tumor 379773-124-R-J2-PDC cell line growth inhibition [CLK]; active = viability on the fitted dose curve at most 10% of control; inactive = the rest;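 further: compound exposure lasted seven days before the viability readout; 100% = DMSO vehicle control wells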
- condition-notes: second compound 0.0316 µM; first compound 3.16 µM
The reply should be one of these categories: 1.0 = active, 0.0 = inactive

Some entries whose results are on file:
compound	label
COc1cccc2c1C(=O)c1c(O)c3c(c(O)c1C2=O)CC(O)(C(=O)CO)CC3OC1CC(N)C(O)C(C)O1 (stereo not drawn) + CNC(=O)c1ccc(Nc2nc(OC3CCCC3)c3c(-c4ccc5nc(C)oc5c4)c[nH]c3n2)c(OC)c1	1.0
COc1cccc2c1C(=O)c1c(O)c3c(c(O)c1C2=O)CC(O)(C(=O)CO)CC3OC1CC(N)C(O)C(C)O1 (stereo not drawn) + CN1CCN(c2cc(C(=O)Nc3cc4cc(-c5cnn(C)c5)ccc4cn3)ccn2)CC1	1.0

Q. Test call, this compound: CC1(C)CCC(CN2CCN(c3ccc(C(=O)NS(=O)(=O)c4ccc(NCC5CCOCC5)c([N+](=O)[O-])c4)c(Oc4cnc5[nH]ccc5c4)c3)CC2)=C(c2ccc(Cl)cc2)C1 + CN1CCN(c2cc(C(=O)Nc3cc4cc(-c5cnn(C)c5)ccc4cn3)ccn2)CC1
A. 0.0
